Would you kindly list pA2 for each of these compounds?
- system.tested: Adrenergic receptor alpha-2 (Cavia porcellus)
- assay.notes: Antagonistic activity against adrenergic alpha-2 receptor in longitudinal muscle strip of the guinea pig ileum using l-norepinephrine as agonist
I'd appreciate a reply containing only the number, no unit.

QUERY: Tell me the measured pA2 of "COc1cc2c(cc1OC)[C@@H]1C[C@@H]3C[C@H](OC(C)=O)CC[C@@H]3CN1CC2" , please.
RESULT: 6.19

QUERY: Data request, read-out pA2, for "CC(=O)O[C@@H]1CC[C@@H]2CN3CCc4cc5c(cc4[C@@H]3C[C@@H]2C1)OCO5"
RESULT: 8.21

QUERY: Please report the recorded pA2 for "N#C[C@@H]1C[C@@H]2CN3CCc4cc5c(cc4[C@@H]3C[C@@H]2C[C@@H]1O)OCO5" .
RESULT: 6.67

====

- system.tested: Adrenergic receptor alpha-1 (Rattus norvegicus, UniProt P15823+P23944+P43140)
- assay.notes: Antagonistic activity against postsynaptic Alpha-1 adrenergic receptor in isolated rat vas deferens using (-)-phenylephrine as agonist
- Assay type: functional, tissue-based
Field: pA2. Provide a value for each of the compounds that follow.

QUERY: Quick one: pA2 of CCOc1cc2c(cc1OCC)[C@@H]1C[C@@H]3C[C@H](O)CCC3CN1CC2 (stereo not given in full) ?
RESULT: < 4

QUERY: Recorded pA2 of "OC[C@@H]1C[C@@H]2CN3CCc4cc5c(cc4[C@@H]3C[C@@H]2C[C@@H]1O)OCO5" , please.
RESULT: < 4

QUERY: Sample "Oc1cc2c(cc1O)[C@@H]1C[C@@H]3C[C@H](O)CC[C@@H]3CN1CC2" — what was its pA2?
RESULT: < 4

QUERY: Give the measured pA2 of "N#C[C@@H]1C[C@@H]2CN3CCc4cc5c(cc4[C@@H]3C[C@@H]2C[C@@H]1O)OCO5" .
RESULT: < 4

QUERY: GET /values?readout=pA2&item= "COc1cc2c(cc1OC)[C@@H]1C[C@@H]3C[C@H](O)CC[C@@H]3CN1CC2"
RESULT: < 4

Where do these numbers come from? They come from ChEMBL document CHEMBL1123932.
